B1: CDC25B (parent)
chain: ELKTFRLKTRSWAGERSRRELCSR

Variants of: B1
assay overview: protein stability index of a GFP-peptide fusion (GPS, HEK-293T) (PSI 1-6); higher = more stable;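 also: lentivirally expressed fusions sorted by FACS into six bins by GFP to DsRed ratio, PSI derived from sequencing read proportions per bin multiplied by bin number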
stated conditions: c terminus: a fixed tail appended
# protein stability index values compiled below
Lab note: jot down the number only; don't add units.

- mutation code: "L2R"
  protein stability index: 3.67
- mutation code: "L7D"
  protein stability index: 3.86
- mutation code: "S17D"
  protein stability index: 3.46
- mutation code: "T9G"
  protein stability index: 4
- mutation code: "F5R"
  protein stability index: 3.78
- mutation code: "L7P"
  protein stability index: 3.99

Below: the item to evaluate.
Entry under review: K3E . Reported protein stability index?
3.29
